assay: chemical genetic growth profiling, strain panel (AID 1159580);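 further: tested at 20 µM; growth read once vehicle control cultures reached saturation at 30 °C; 1 = growth at the plate median or of vehicle wells; lower values mean less growth of the strain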; settings: S. cerevisiae deletion strains, growth OD, locus YNL322C, strain KRE1 (second series), stronger effect = lower value
In all, about 5,500 compounds went through this assay and about 2,000 (36%) were called active. Inconclusive results (about 18%) are left out. Some of the results follow.
reported_endpoint: normalized growth

- compound: "COC(=O)[C@@H]1C(O)CC[C@H]2CN3CCc4c([nH]c5ccccc45)[C@@H]3C[C@@H]21 (stereo partly specified)"
  reported_endpoint: "normalized growth"
  measured: 1.01
- compound: "NC(=O)N1c2ccccc2CC(=O)c2ccccc21"
  reported_endpoint: "normalized growth"
  measured: 0.986
- compound: "COC(=O)COc1cc(Cl)c(Cl)cc1Cl"
  reported_endpoint: "normalized growth"
  measured: 0.996
- compound: "CC(C)(CO)C(O)C(=O)NCCCO (stereo unspecified)"
  reported_endpoint: "normalized growth"
  measured: 1.01
- compound: "COC(=O)C1[C@H]2C[C@H]3c4[nH]c5ccccc5c4CCN3C[C@@H]2CC[C@@H]1O (stereo partly specified)"
  reported_endpoint: "normalized growth"
  measured: 0.973
- compound: "O=C(O)COc1cc(Cl)c(Cl)cc1Cl"
  reported_endpoint: "normalized growth"
  measured: 0.992

---

assay: chemical genetic growth profiling, strain panel (AID 1159580); conditions: S. cerevisiae deletion strains, growth OD, locus YLL001W, strain dnm1, stronger effect = lower value
About 2,000 (36%) of roughly 5,500 compounds were called active. Roughly 18% stayed inconclusive and do not appear here. This is one part of the list.
One threshold, 1, splits the recorded normalized growth values: lower ones are Met, equal or higher ones are Not met.

- compound: "COc1ccc([C@@H]2CC(=O)c3c(O)cc(O)cc3O2)cc1O"
  qualitative_label: "Met"
- compound: "CC(=O)O[C@H]1C(=O)[C@@]2(C)C([C@H](OC(=O)c3ccccc3)[C@]3(O)C[C@H](OC(=O)[C@H](O)[C@@H](NC(=O)c4ccccc4)c4ccccc4)C(C)=C1C3(C)C)[C@]1(OC(C)=O)CO[C@@H]1C[C@@H]2O (some centres not stated)"
  qualitative_label: "Not met"
- compound: "O=C1C[C@@H](c2ccc(O)cc2)Oc2cc(O)cc(O)c21"
  qualitative_label: "Met"
- compound: "C[C@@H]1O[C@@H](O[C@H]2[C@@H](Oc3cc(O)c4c(c3)O[C@H](c3ccc(O)cc3)CC4=O)O[C@H](CO)[C@@H](O)[C@@H]2O)[C@H](O)[C@H](O)[C@H]1O"
  qualitative_label: "Met"

---

assay: chemical genetic growth profiling, strain panel (AID 1159580); conditions: S. cerevisiae deletion strains, growth OD, locus YPR119W, strain clb2
About 2,000 (36%) of roughly 5,500 compounds were called active. Inconclusive results (about 18%) are left out. Rule as the data show it: active = normalized growth mostly below about 0.91 (no sharp cut-off); inconclusive = no clear call, values can overlap the other calls; inactive = mostly above about 0.92. The list shows a part of the results.
Outcomes: active, inactive

- molecule: "CCCCOc1ccc(C(=O)CCN2CCCCC2)cc1"
  qualitative_label: "active"
- molecule: "Oc1ccc(O)cc1"
  qualitative_label: "inactive"
- molecule: "NC(=O)N1c2ccccc2CC(=O)c2ccccc21"
  qualitative_label: "inactive"
- molecule: "COc1cc2c(cc1OC)C(=O)C(CC1CCN(Cc3ccccc3)CC1)C2 (centres undefined)"
  qualitative_label: "inactive"
- molecule: "NC(=O)c1ncn([C@@H]2O[C@H](CO)[C@@H](O)[C@H]2O)c1O"
  qualitative_label: "inactive"
- molecule: "COc1cc(OC)c2c(c1)OC(c1ccccc1)CC2=O (centres undefined)"
  qualitative_label: "inactive"
- molecule: "C[N+](C)(C)CCOP(=O)([O-])OP(=O)(O)OC[C@H]1OC(n2ccc(N)nc2=O)[C@H](O)[C@@H]1O (some centres undefined)"
  qualitative_label: "inactive"
- molecule: "CC(C)CC1C(=O)N2CCC[C@H]2C2(O)O[C@](NC(=O)C3C=C4c5cccc6[nH]c(Br)c(c56)C[C@H]4N(C)C3)(C(C)C)C(=O)N12 (some centres undefined)"
  qualitative_label: "inactive"
- molecule: "COc1ccc(C2CC(=O)c3ccc(OC)cc3O2)cc1 (centres undefined)"
  qualitative_label: "inactive"
- molecule: "CC[C@@H](CO)NCCN[C@@H](CC)CO"
  qualitative_label: "inactive"
- molecule: "Cc1ccc(O)cc1"
  qualitative_label: "inactive"
- molecule: "COc1ccc([C@@H]2CC(=O)c3c(O)cc(O)cc3O2)cc1O"
  qualitative_label: "inactive"
- molecule: "O=C1CC(c2ccccc2)Oc2ccccc21 (centres undefined)"
  qualitative_label: "inactive"
- molecule: "NC(N)=Nc1nc(CSCCC(N)=NS(N)(=O)=O)cs1"
  qualitative_label: "inactive"

---

experiment: chemical genetic growth profiling, strain panel (AID 1159580);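 further: tested at 20 µM; growth read once vehicle control cultures reached saturation at 30 °C; 1 = growth at the plate median or of vehicle wells; lower values mean less growth of the strain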; details: S. cerevisiae deletion strains, growth OD, locus YNL175C, strain NOP13, stronger effect = lower value
The whole screen tested about 5,500 compounds, of which about 2,000 (36%) were called active. Not shown: some 18% with an inconclusive outcome. The list shows a part of the results.
Entries and their normalized growth values follow.
reported_endpoint: normalized growth

- compound: "CN(C)CCCCSC(=N)N"
  reported_endpoint: "normalized growth"
  measured: 0.995
- compound: "Cn1cc(C2=C(c3ccc(Cl)cc3Cl)C(=O)NC2=O)c2ccccc21"
  reported_endpoint: "normalized growth"
  measured: 1
- compound: "CCC1(c2ccc(N)cc2)CCC(=O)NC1=O (stereo not drawn)"
  reported_endpoint: "normalized growth"
  measured: 0.992
- compound: "C[N+]1(C)C2CCC1CC(OC(=O)c1c[nH]c3ccccc13)C2 (stereo not drawn)"
  reported_endpoint: "normalized growth"
  measured: 0.973
- compound: "CC1CCN=C(N)S1 (stereo not drawn)"
  reported_endpoint: "normalized growth"
  measured: 0.991
- compound: "CCSC(=N)N"
  reported_endpoint: "normalized growth"
  measured: 0.988
- compound: "CCC1(c2ccccc2)C(=O)NCNC1=O"
  reported_endpoint: "normalized growth"
  measured: 0.997
- compound: "Nc1nc2ccc(Cl)cc2c2nc(-c3ccco3)nn12"
  reported_endpoint: "normalized growth"
  measured: 0.664
- compound: "O[Si](CCCN1CCCCC1)(c1ccc(F)cc1)C1CCCCC1 (stereo not drawn)"
  reported_endpoint: "normalized growth"
  measured: 0.995
- compound: "Nc1nc(Cl)nc2c1ncn2[C@@H]1O[C@H](CO)[C@H](O)C1O (stereo partly drawn)"
  reported_endpoint: "normalized growth"
  measured: 0.996
- compound: "CC(C)Oc1cccnc1N(C)C1CCN(Cc2ccccc2)CC1"
  reported_endpoint: "normalized growth"
  measured: 0.991
- compound: "CCN(CC)C(=S)SSC(=S)N(CC)CC"
  reported_endpoint: "normalized growth"
  measured: 0.342
- compound: "O=Nc1ccc2oc(=O)ccc2c1"
  reported_endpoint: "normalized growth"
  measured: 0.994

---

assay: chemical genetic growth profiling, strain panel (AID 1159580);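 further: tested at 20 µM; growth read once vehicle control cultures reached saturation at 30 °C; 1 = growth at the plate median or of vehicle wells; lower values mean less growth of the strain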; details: S. cerevisiae deletion strains, growth OD, locus YBL061C, strain skt5
The whole screen tested about 5,500 compounds, of which about 2,000 (36%) were called active. Inconclusive results (about 18%) are left out. Rule as the data show it: active = normalized growth mostly below about 0.91 (no sharp cut-off); inconclusive = no clear call, values can overlap the other calls; inactive = mostly above about 0.92. The list shows a part of the results.
Outcomes: y for active, n for inactive

- compound: "C[CH2][Hg][S]c1ccccc1C(=O)O"
  qualitative_label: "y"
- compound: "CCc1nc(N)nc(N)c1-c1ccc(Cl)cc1"
  qualitative_label: "n"
- compound: "CC(C)N(C(=O)CCl)c1ccccc1"
  qualitative_label: "n"
- compound: "C=CCc1ccc2c(c1)OCO2"
  qualitative_label: "n"
- compound: "Cc1cc(=O)c2c(O)cc(O)c(C)c2o1"
  qualitative_label: "n"
- compound: "N=c1nc(N2CCCCC2)cc(N)n1O"
  qualitative_label: "n"
- compound: "COc1ccc(-c2cc(=O)c3c(O)cc(OC)c(OC)c3o2)c(OC)c1"
  qualitative_label: "n"
- compound: "Cc1cc(=O)c2c(O)c(C)c(O)cc2o1"
  qualitative_label: "n"
- compound: "CCCCCC(C)N (stereo not given)"
  qualitative_label: "n"
- compound: "COc1ccc(C(=O)c2ccccc2)c(O)c1"
  qualitative_label: "y"
- compound: "CN1CCc2cc3c(cc2C1O)OCO3 (stereo not given)"
  qualitative_label: "n"
- compound: "COc1cc(O)c2c(=O)cc(C)oc2c1CC=C(C)C"
  qualitative_label: "n"
- compound: "O=C(O)c1ccccc1OP(=O)(O)O"
  qualitative_label: "n"
- compound: "C[N+](C)(C)CC(=O)[O-]"
  qualitative_label: "n"
- compound: "C[C@@H](N)CO"
  qualitative_label: "n"

---

Entries and their normalized growth values follow.
assay: chemical genetic growth profiling, strain panel (AID 1159580);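 further: tested at 20 µM; growth read once vehicle control cultures reached saturation at 30 °C; 1 = growth at the plate median or of vehicle wells; lower values mean less growth of the strain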; conditions: S. cerevisiae deletion strains, growth OD, locus YJL166W, strain qcr8, stronger effect = lower value
Screen size: about 5,500 compounds; about 2,000 (36%) were called active. Another 18% or so got no clear call; they are omitted. This is one part of the list.

- compound: "COC(=O)C1=COC(OC2OC(CO)C(O)C(O)C2O)C2C(C)CC(=O)C12O (stereo not given)"
  normalized growth: 0.975
- compound: "Cc1cc(C(C)(C)CC(C)(C)C)ccc1OCCOCC[N+](C)(C)Cc1ccccc1"
  normalized growth: 0.0596
- compound: "CC(=O)O[C@]1(C(C)=O)CCC2C3C=C(Cl)C4=CC(=O)CC[C@]4(C)C3CC[C@@]21C (stereo not given in full)"
  normalized growth: 0.98
- compound: "CC(C)(C)CC(C)(C)c1ccc(OCCOCC[N+](C)(C)Cc2ccccc2)cc1"
  normalized growth: 0.0654
- compound: "CCCCCCCCCCCCC[N+](C)(C)Cc1ccccc1"
  normalized growth: 0.0642
